- Study Target: T1, rhesus serum albumin (rhesus, UniProt Q28522 17-600)
- T1 construct: also called RhSA
- Assay Summary: SPR, single cycle kinetics, pH 7.4
Readout Label: Kd (nM)

# Binder, Readout Label, Value Reported
rows = [
    ("H18-H4 (VHH) VHH: QVQLVESGGGLVQPGGSLRLSCAASGSIESINRMAWYRQAPGQQREFVARISKGGSTNYPDSVKGRFTISRDNSKNTLYLQMNSLRAEDTAVYYCAAGPVWEQFWGQGTLVTVSS", "Kd", 34.4),
    ("Rh34 sdAb (VHH, also called Rh34 VHH) VHH: QVKLEESGGGLVQAGGSLRLSCAASGRTISLYAVGWFRRAPGKEREFVAAISWTDSSTYYADSVKGRFTISRDNAKNTVYLGMNSLNPEDTAVYYCAADVSIRGLQKYEYDYWGQGTQVTVSS", "Kd", 333),
]
